# Test system: weeds and/or crops
# PROCEDURE SUMMARY: Post-emergence biological efficacy (Table 4)
# Assay type: in vivo
# COND: Amaranthus retroflexus, 312 h, AMARE, 1000 g/ha, evaluated after 13 days, read-out: damage to plant AMARE (100=total damage; 0=no damage)
In plain terms, low pest or weed control at 1000 g/ha, meaning strictly below 80%, gives 1, and everything else gives 0.

Would you please look over these solved cases?
>>> print(df.to_string())
                                   compound  group
0  COc1c(F)ccc(C(F)(F)C(=O)O)c1F [Compound 1-458]      0
1  O=C(O)C(F)(F)c1cccc([N+](=O)[O-])c1Cl [Compound 7-237]      1
2  COc1c(Cl)ccc(F)c1C(F)(F)C(=O)O [Compound 7-325]      1
3  COC(=O)c1c(Cl)cccc1C(F)(F)C(=O)O [Compound 1-444]      1
4  O=C(O)C(F)(F)c1cccc2nccnc12 [Compound 1-409]      1

Request: For this compound, is pest or weed control at 1000 g/ha lower than 80%? Nc1cc(Cl)c(Cl)c(C(F)(F)C(=O)O)c1 [Compound 1-77]
Result: 1

Request: For this compound, is pest or weed control at 1000 g/ha lower than 80%? Nc1c(Cl)cccc1C(F)(F)C(=O)O [Compound 1-252]
Result: 1

Request: For this compound, is pest or weed control at 1000 g/ha lower than 80%? COC(=O)C(F)(F)c1c(Cl)ccc(Cl)c1OC [Compound 2-326]
Result: 1

Request: For this compound, is pest or weed control at 1000 g/ha lower than 80%? Nc1cc(Cl)cc(C(F)(F)C(=O)O)c1Cl [Compound 1-235]
Result: 1

Request: For this compound, is pest or weed control at 1000 g/ha lower than 80%? N#Cc1c(Cl)cccc1C(F)(F)C(=O)O [Compound 1-262]
Result: 0

Request: For this compound, is pest or weed control at 1000 g/ha lower than 80%? COC(=O)C(F)(F)c1c(Cl)cccc1OC [Compound 2-65]
Result: 1

Request: For this compound, is pest or weed control at 1000 g/ha lower than 80%? Nc1c(Cl)cc(Cl)c(Cl)c1C(F)(F)C(=O)O [Compound 1-81]
Result: 1

Request: For this compound, is pest or weed control at 1000 g/ha lower than 80%? Nc1ccc(Cl)c(C(F)(F)C(=O)O)c1 [Compound 1-63]
Result: 1

Request: For this compound, is pest or weed control at 1000 g/ha lower than 80%? N#Cc1c(F)cccc1C(F)(F)C(=O)O [Compound 1-261]
Result: 1

Request: For this compound, is pest or weed control at 1000 g/ha lower than 80%? O=C(O)C(F)(F)c1cccc(Cl)c1C1CC1 [Compound 1-428]
Result: 0

Request: For this compound, is pest or weed control at 1000 g/ha lower than 80%? CCOC(=O)C(F)(F)c1cccc2ccccc12 [Compound 3-397, Ethyl 2,2-difluoro-2-(1-naphthyl)acetate]
Result: 1

Request: For this compound, is pest or weed control at 1000 g/ha lower than 80%? COc1c(F)cccc1C(F)(F)C(=O)O [Compound 1-306]
Result: 1
